- SYSTEM_UNDER_TEST: T1, TRCW5 antigen (CD3δε-Fc-Avi) (biotinylated (site not stated))
- T1 construct: also called recombinant CD3
- ASSAY_METHOD_TEXT: ELISA after heat
TEST_READOUT: % Retained 55° C. (%)
# value in %; strip the unit string

Q. Dear colleague, I am looking for the recorded % Retained 55° C. of the following binder: CD3B2050 (scFv) scFv: QVQLVQSGAEVKKPGSSVKVSCKASGYTFTRSTMHWVKQAPGQGLEWMGYINPSSAYTNYNQKFQGRVTLTADKSTSTAYMELSSLRSEDTAVYYCASPQVHYDYNGFPYWGQGTLVTVSSGGSEGKSSGSGSESKSTGGSEIVLTQSPATLSASPGERVTLSCSASSSVSYMNWYQQKPGQSPRRLIYDSSKLASGVPARFSGSGSGRDYTLTISSLEPEDFAVYYCQQWSRNPPTFGGGTKVEIK
A. 108

Q. Could you share which % Retained 55° C. value was measured for CD3B2046 (scFv) scFv: QVQLVQSGAEVKKPGSSVKVSCKASGYTFTRSTMHWVKQAPGQGLEWIGYINPSSAYTNYNQKFQGRVTLTADKSTSTAYMELSSLRSEDTAVYYCASPQVHYDYNGFPYWGQGTLVTVSSGGSEGKSSGSGSESKSTGGSEIVLTQSPATLSASPGERVTLSCSASSSVSYMNWYQQKPGTSPRRWIYDSSKLASGVPARFSGSGSGRDYTLTISSLEPEDFAVYYCQQWSRNPPTFGGGTKVEIK ?
A. 111

Q. Would you mind telling me what % Retained 55° C. value was observed for CD3B2086 (scFv) scFv: QVQLVQSGAEVKKPGSSVKVSCKASGYTFTRSTMHWVRQAPGQGLEWMGYINPSSAYTNYAQKFQGRVTLTADKSTSTAYMELSSLRSEDTAVYYCASPQVHYDYNGFPYWGQGTLVTVSSGGSEGKSSGSGSESKSTGGSEIVLTQSPATLSASPGERVTLSCSASSSVSYMNWYQQKPGTSPRRLIYDSSKLASGVPARFSGSGSGRDYTLTISSLEPEDFAVYYCQQWSRNPPTFGGGTKVEIK ?
A. 104

Q. Which % Retained 55° C. value is on record for CD3B2043 (scFv) scFv: QVQLVQSGAEVKKPGSSVKVSCKASGYTFTRSTMHWVRQAPGQGLEWIGYINPSSAYTNYNQKFQGRVTLTADKSTSTAYMELSSLRSEDTAVYYCASPQVHYDYNGFPYWGQGTLVTVSSGGSEGKSSGSGSESKSTGGSEIVLTQSPATLSASPGERVTLSCSASSSVSYMNWYQQKPGTAPRRLIYDSSKLASGVPARFSGSGSGRDYTLTISSLEPEDFAVYYCQQWSRNPPTFGGGTKVEIK ?
A. 100

Q. So what does the record say about % Retained 55° C. for CD3B2059 (scFv) scFv: QVQLVQSGAEVKKPGSSVKVSCKASGYTFTRSTMHWVKQAPGQGLEWIGYINPSSAYTNYAQKFQGRVTLTADKSTSTAYMELSSLRSEDTAVYYCASPQVHYDYNGFPYWGQGTLVTVSSGGSEGKSSGSGSESKSTGGSEIVLTQSPATLSASPGERVTLSCSASSSVSYMNWYQQKPGQSPRRLIYDSSKLASGVPARFSGSGSGRDYTLTISSLEPEDFAVYYCQQWSRNPPTFGGGTKVEIK ?
A. 112

Q. // % Retained 55° C. lookup, key: CD3B2066 (scFv) scFv: QVQLVQSGAEVKKPGSSVKVSCKASGYTFTRSTMHWVRQAPGQGLEWMGYINPSSAYTNYNQKFQGRVTLTADKSTSTAYMELSSLRSEDTAVYYCASPQVHYDYNGFPYWGQGTLVTVSSGGSEGKSSGSGSESKSTGGSEIVLTQSPATLSASPGERVTLSCSASSSVSYMNWYQQKPGTSPRRWIYDSSKLASGVPARFSGSGSGRDYTLTISSLEPEDFAVYYCQQWSRNPPTFGGGTKVEIK
A. 109

Q. Consider the binder shown here: CD3B2088 (scFv) scFv: QVQLVQSGAEVKKPGSSVKVSCKASGYTFTRSTMHWVRQAPGQGLEWMGYINPSSAYTNYAQKFQGRVTLTADKSTSTAYMELSSLRSEDTAVYYCASPQVHYDYNGFPYWGQGTLVTVSSGGSEGKSSGSGSESKSTGGSEIVLTQSPATLSASPGERVTLSCSASSSVSYMNWYQQKPGQSPRRWIYDSSKLASGVPARFSGSGSGRDYTLTISSLEPEDFAVYYCQQWSRNPPTFGGGTKVEIK What is its recorded % Retained 55° C.?
A. 116

Q. Need % Retained 55° C., item CD3B2044 (scFv) scFv: QVQLVQSGAEVKKPGSSVKVSCKASGYTFTRSTMHWVRQAPGQGLEWIGYINPSSAYTNYNQKFQGRVTLTADKSTSTAYMELSSLRSEDTAVYYCASPQVHYDYNGFPYWGQGTLVTVSSGGSEGKSSGSGSESKSTGGSEIVLTQSPATLSASPGERVTLSCSASSSVSYMNWYQQKPGQSPRRWIYDSSKLASGVPARFSGSGSGRDYTLTISSLEPEDFAVYYCQQWSRNPPTFGGGTKVEIK
A. 103

Q. Which % Retained 55° C. value belongs to CD3B2054 (scFv) scFv: QVQLVQSGAEVKKPGSSVKVSCKASGYTFTRSTMHWVKQAPGQGLEWMGYINPSSAYTNYAQKFQGRVTLTADKSTSTAYMELSSLRSEDTAVYYCASPQVHYDYNGFPYWGQGTLVTVSSGGSEGKSSGSGSESKSTGGSEIVLTQSPATLSASPGERVTLSCSASSSVSYMNWYQQKPGQAPRRLIYDSSKLASGVPARFSGSGSGRDYTLTISSLEPEDFAVYYCQQWSRNPPTFGGGTKVEIK ?
A. 106

Q. Which % Retained 55° C. value is on record for CD3B1130 (scFv, also called IGHV1-69*02-IGHJ1-01 / IGKV3-11*02-IGKJ4-01 grafted construct, HL) scFv: QVQLVQSGAEVKKPGSSVKVSCKASGYTFTRSTMHWVRQAPGQGLEWMGYINPSSAYTNYNQKFQGRVTLTADKSTSTAYMELSSLRSEDTAVYYCARPQVHYDYNGFPYWGQGTLVTVSSGGSEGKSSGSGSESKSTGGSEIVLTQSPATLSLSPGERATLSCSASSSVSYMNWYQQKPGTSPRRLIYDSSKLASGIPARFSGSGSGRDYTLTISSLEPEDFAVYYCQQWSRNPPTFGGGTKVEIK ?
A. 90
